This collection of values is drawn from patent US20230235040A1.

Biological target: T1, hu-IL-36α (human IL-36α, N-terminally truncated active form K6-F158) (human, UniProt Q9UHA7 6-158)
T1 construct: Purification tag cleaved off; Biotinylated where captured (SPR, some ELISAs); also called hu-IL-36a
T1 sequence: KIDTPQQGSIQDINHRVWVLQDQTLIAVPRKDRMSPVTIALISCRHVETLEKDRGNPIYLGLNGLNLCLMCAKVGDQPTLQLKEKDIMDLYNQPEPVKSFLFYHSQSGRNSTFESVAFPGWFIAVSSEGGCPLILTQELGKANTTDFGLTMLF
Assay: phage competition ELISA: Fab on phage, soluble hu-IL-36α titrated against coated hu-IL-36α
property_name: pIC50
The scale used: pIC50 is minus the common logarithm of the concentration in molar units.

binder	pIC50
mAb2.7 Fab (phage-displayed) (Fab, V domains shown) VH: ELQLQESGPGLVKPSETLSLTCTVSGGSISRSSYYWGWIRQPPGKGLEWIGSIYYTGNTYYWPSLKSRVTISVDTSKNQFSLKLSSVTAADTAVYYCTRVRYGVGVPRYFDPWGQGTLVTVSS VL: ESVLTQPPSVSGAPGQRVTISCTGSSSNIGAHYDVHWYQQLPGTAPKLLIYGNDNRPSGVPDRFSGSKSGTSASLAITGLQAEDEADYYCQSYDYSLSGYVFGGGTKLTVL	8.92
mAb2.3 Fab (phage-displayed) (Fab, V domains shown) VH: ELQLQESGPGLVKPSETLSLTCTVSGGSISTSSDYWGWIRQPPGKGLEWIGSIYYTGNTYYLPSLKSRVTISVDTSKNQFSLKLSSVTAADTAVYYCSRVRYGVGVPRYFDPWGQGTLVTVSS VL: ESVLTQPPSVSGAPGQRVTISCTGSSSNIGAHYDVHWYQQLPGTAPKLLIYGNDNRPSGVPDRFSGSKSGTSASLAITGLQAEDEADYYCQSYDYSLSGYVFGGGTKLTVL	9.09

Query block: Read the entry mAb2.6 Fab (phage-displayed) (Fab, V domains shown) VH: ELQLQESGPGLVKPSETLSLTCTVSGGSISTSSYHWGWIRQPPGKGLEWIGSIYYTGNTYYMPSLKSRVTISVDTSKNQFSLKLSSVTAADTAVYYCVRVRYGVGVPRYFDPWGQGTLVTVSS VL: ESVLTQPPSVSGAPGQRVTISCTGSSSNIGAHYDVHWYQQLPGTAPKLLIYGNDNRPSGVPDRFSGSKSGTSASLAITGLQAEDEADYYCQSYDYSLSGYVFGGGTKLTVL and write its reported pIC50.
Result block: 8.79
